Test system: resistant A375 R5C3 an A375 RIV cell lines
Test protocol: Cell viability on resistant melanoma cell lines (FIG. 2a)
Assay type: cell-based
Stated conditions: resistant A375 R5C3 and A375 RIV cell lines; 10 μM

[
  {
    "Mol": "CCCCCCCCc1ccc(S(=O)(=O)Nc2cccc(-c3csc(NC(C)=O)n3)c2)cc1",
    "cell viability": "strong activity"
  },
  {
    "Mol": "CCCCCCC#Cc1ccc(S(=O)(=O)Nc2cccc(-c3csc(NC(C)=O)n3)c2)cc1",
    "cell viability": "strong activity"
  },
  {
    "Mol": "CCCCCCc1ccc(S(=O)(=O)Nc2cccc(-c3csc(NC(C)=O)n3)c2)cc1",
    "cell viability": "strong activity"
  }
]
